Reference source for all entries: the supplement of paper PMC12667976

Can you tell me AIRE transcriptional activation functional score for the items I'm about to list?
B1: library; numbered along this chain (parent)
chain: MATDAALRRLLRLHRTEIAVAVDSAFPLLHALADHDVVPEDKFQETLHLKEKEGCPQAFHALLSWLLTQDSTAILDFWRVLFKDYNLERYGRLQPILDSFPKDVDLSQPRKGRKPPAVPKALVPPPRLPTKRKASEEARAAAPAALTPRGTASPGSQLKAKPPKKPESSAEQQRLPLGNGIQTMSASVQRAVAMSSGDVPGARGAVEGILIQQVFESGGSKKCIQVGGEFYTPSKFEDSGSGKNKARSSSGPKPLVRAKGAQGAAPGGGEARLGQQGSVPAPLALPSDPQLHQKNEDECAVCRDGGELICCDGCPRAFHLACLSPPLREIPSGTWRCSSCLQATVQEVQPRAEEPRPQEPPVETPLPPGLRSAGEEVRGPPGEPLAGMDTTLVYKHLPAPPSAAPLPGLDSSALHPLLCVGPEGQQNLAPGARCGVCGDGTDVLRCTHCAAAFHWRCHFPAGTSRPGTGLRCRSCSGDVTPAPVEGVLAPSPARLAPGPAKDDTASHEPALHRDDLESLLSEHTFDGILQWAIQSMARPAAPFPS

Variants of: B1
method.summary: AIRE transcriptional activation functional score (insulin promoter-GFP; nonsense median 0, synonymous median 1) (normalised score); higher = higher AIRE activity (more reporter activation)
measurement.conditions: with insulin promoter-GFP reporter in HEK293

Some solved entries appear below for comparison.
1. I533L = 0.274
2. A261C = 1.11
3. Q358T = 0.929
4. G440Q = 1.15
5. H14L = -0.153

Value sought for every listed variant: AIRE transcriptional activation functional score.
1. V206E
2. K161N
3. A205S
4. K253C
5. P282S

[0.273, 0.888, 1.09, 1.39, 0.614]
